- experimental-target: Cholinesterase (Equus caballus, UniProt P81908)
- Sequence (P81908 whole entry): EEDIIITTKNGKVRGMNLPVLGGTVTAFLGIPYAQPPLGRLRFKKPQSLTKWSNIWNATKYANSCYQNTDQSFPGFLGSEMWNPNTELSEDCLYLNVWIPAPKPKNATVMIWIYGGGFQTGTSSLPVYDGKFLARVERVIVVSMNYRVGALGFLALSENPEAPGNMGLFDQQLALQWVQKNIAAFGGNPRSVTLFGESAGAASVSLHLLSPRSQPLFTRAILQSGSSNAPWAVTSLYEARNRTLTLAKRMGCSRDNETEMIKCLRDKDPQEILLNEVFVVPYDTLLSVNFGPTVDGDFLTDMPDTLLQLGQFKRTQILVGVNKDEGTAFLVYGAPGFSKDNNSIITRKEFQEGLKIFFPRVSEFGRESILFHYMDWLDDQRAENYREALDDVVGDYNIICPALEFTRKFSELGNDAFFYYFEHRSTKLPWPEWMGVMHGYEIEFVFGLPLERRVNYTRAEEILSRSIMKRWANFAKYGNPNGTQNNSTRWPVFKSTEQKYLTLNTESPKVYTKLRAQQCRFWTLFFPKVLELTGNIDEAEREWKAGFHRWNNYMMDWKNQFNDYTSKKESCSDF
- method-description: Non-Competitive inhibition of equine serum BuChE using varying concentrations of butyrylthiocholine iodide as substrate by Lineweaver-burk plot analysis
pKi: −log10 of the molar value.
measurement-label: pKi

>>> reported_value("COc1cc(C(=O)N/N=C/c2ccccc2OC(=O)N(C)C)ccc1O")
4.01

###

// reported IC50 per item
- experimental-target: Acetylcholinesterase (Electrophorus electricus)
- Sequence (O42275 whole entry): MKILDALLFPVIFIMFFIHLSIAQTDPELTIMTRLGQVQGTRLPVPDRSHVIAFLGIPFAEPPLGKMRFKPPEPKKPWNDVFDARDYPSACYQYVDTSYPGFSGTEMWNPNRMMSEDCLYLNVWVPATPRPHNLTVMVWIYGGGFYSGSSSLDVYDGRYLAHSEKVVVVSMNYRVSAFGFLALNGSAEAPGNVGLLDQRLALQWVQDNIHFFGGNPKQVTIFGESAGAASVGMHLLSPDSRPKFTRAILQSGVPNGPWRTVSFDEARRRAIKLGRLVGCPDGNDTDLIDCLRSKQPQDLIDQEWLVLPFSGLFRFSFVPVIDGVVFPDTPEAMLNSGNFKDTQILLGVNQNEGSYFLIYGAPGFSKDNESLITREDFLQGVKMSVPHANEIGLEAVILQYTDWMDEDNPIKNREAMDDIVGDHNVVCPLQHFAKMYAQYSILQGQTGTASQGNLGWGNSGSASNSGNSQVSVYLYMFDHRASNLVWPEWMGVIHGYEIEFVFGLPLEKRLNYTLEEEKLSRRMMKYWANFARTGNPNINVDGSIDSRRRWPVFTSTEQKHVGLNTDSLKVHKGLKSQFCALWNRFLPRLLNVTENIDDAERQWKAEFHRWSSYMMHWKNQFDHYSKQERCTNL
measurement-label: IC50

>>> reported_value("CN(C)C(=O)Oc1ccccc1/C=N/NC(=O)c1ccc(O)cc1")
"> 100 µM"
>>> reported_value("CN(C)C(=O)Oc1ccccc1/C=N/NC(=O)c1cccc(O)c1")
"> 100 µM"
>>> reported_value("CN(C)C(=O)Oc1ccc(/C=N/NC(=O)c2ccc(O)cc2)cc1")
"> 100 µM"
>>> reported_value("COc1ccc(C(=O)N/N=C/c2ccc(OC(=O)N(C)C)c(OC)c2)cc1OC")
"> 100 µM"
>>> reported_value("COc1cc(C(=O)N/N=C/c2ccc(OC(=O)N(C)C)cc2)ccc1O")
"> 100 µM"
>>> reported_value("COc1cc(/C=N/NC(=O)c2ccc(O)cc2)ccc1OC(=O)N(C)C")
"> 100 µM"
>>> reported_value("COc1ccc(C(=O)N/N=C/c2ccccc2OC(=O)N(C)C)cc1OC")
"> 100 µM"
>>> reported_value("COc1cc(C(=O)N/N=C/c2ccc(OC(=O)N(C)C)c(OC)c2)ccc1O")
"> 100 µM"
>>> reported_value("COc1cc(/C=N/NC(=O)c2cccc(O)c2)ccc1OC(=O)N(C)C")
"> 100 µM"
>>> reported_value("CN(C)C(=O)Oc1ccc(/C=N/NC(=O)c2cccc(O)c2)cc1")
"> 100 µM"
>>> reported_value("COc1ccc(C(=O)N/N=C/c2ccc(OC(=O)N(C)C)cc2)cc1OC")
"> 100 µM"
>>> reported_value("COc1cc(C(=O)N/N=C/c2ccccc2OC(=O)N(C)C)ccc1O")
"> 100 µM"

###

# inhibition per record follows
- experimental-target: Cholinesterase (Equus caballus)
- method-description: Inhibition of equine serum BuChE at 100 uM using butyrylthiocholine chloride as substrate preincubated for 15 mins followed by substrate addition and measured after 4 mins by Ellman's method
- Assay type: cell-free
measurement-label: inhibition (%)

>>> reported_value("COc1cc(/C=N/NC(=O)c2ccc(O)cc2)ccc1OC(=O)N(C)C")
73.4
>>> reported_value("CN(C)C(=O)Oc1ccc(/C=N/NC(=O)c2cccc(O)c2)cc1")
75.2
>>> reported_value("CN(C)C(=O)Oc1ccccc1/C=N/NC(=O)c1ccc(O)cc1")
80.9
>>> reported_value("COc1ccc(C(=O)N/N=C/c2ccc(OC(=O)N(C)C)cc2)cc1OC")
37.8
>>> reported_value("COc1ccc(C(=O)N/N=C/c2ccc(OC(=O)N(C)C)c(OC)c2)cc1OC")
78.5
>>> reported_value("COc1cc(C(=O)N/N=C/c2ccc(OC(=O)N(C)C)cc2)ccc1O")
63.9
>>> reported_value("CN(C)C(=O)Oc1ccccc1/C=N/NC(=O)c1cccc(O)c1")
82
>>> reported_value("COc1cc(/C=N/NC(=O)c2cccc(O)c2)ccc1OC(=O)N(C)C")
62.2
>>> reported_value("COc1cc(C(=O)N/N=C/c2ccccc2OC(=O)N(C)C)ccc1O")
77.8
>>> reported_value("COc1cc(C(=O)N/N=C/c2ccc(OC(=O)N(C)C)c(OC)c2)ccc1O")
49.7
>>> reported_value("CN(C)C(=O)Oc1ccc(/C=N/NC(=O)c2ccc(O)cc2)cc1")
31
>>> reported_value("COc1ccc(C(=O)N/N=C/c2ccccc2OC(=O)N(C)C)cc1OC")
74
